- TARGET_DESC: KRAS G12C-BRAF complex (Homo sapiens (Human), UniProt P01116+P62937, G12C)
- Sequence (P01116-2 other isoform, or with tags, fused parts or gaps G12C): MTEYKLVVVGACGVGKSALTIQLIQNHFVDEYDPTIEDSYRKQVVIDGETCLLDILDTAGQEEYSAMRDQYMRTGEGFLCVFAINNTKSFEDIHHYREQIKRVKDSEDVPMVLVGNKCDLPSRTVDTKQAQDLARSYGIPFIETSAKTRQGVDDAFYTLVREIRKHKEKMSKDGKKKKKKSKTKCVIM
- Sequence (P62937 whole entry): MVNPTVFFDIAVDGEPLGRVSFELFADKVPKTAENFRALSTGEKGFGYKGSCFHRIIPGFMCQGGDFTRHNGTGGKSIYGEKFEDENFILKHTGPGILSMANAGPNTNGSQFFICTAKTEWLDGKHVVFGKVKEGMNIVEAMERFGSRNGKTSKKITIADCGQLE
- MEASUREMENT_DESCRIPTION: KRAS-BRAF with CYPA (500 nM) interaction assay (TR-FRET, Example 136)
- Assay type: biochemical
- TEST_CONDITIONS: KRAS G12C-BRAF disruption
IC50 for assorted compounds
Please state the figure in µM; there is no need to write the unit.

CO[C@@H](C)c1ncc(N2CCN(C)CC2)cc1-c1c2c3cc(cc4c3n1CCC4)-c1csc(n1)C[C@H](NC(=O)C13C4CC1CC3C4)C(=O)N1CCC[C@H](N1)C(=O)OCC(C)(C)C2 (stereo partly shown) = 0.0315
CO[C@@H](C)c1ncc(N2CCOCC2)cc1-c1c2c3cc(cc4c3n1CC(C)(C)O4)-c1csc(n1)C[C@H](NC(=O)[C@H]1[C@H](C)[C@@H]1C)C(=O)N1CCC[C@H](N1)C(=O)OCC(C)(C)C2 (atropisomer, axis not shown; (M)) = 0.0509
CO[C@@H](C)c1ncc(N2CCN(C)CC2)cc1-c1c2c3cc(cc4c3n1CCC4)-c1csc(n1)C[C@H](NC(=O)[C@H]1C[C@@H]1c1cnccn1)C(=O)N1CCC[C@H](N1)C(=O)OCC(C)(C)C2 (atropisomer, axis not shown; (M)) = 0.0126
CO[C@@H](C)c1ncc(N2CCN(C)CC2)cc1-c1c2c3cc(cc4c3n1CCC4)-c1csc(n1)C[C@H](NC(=O)[C@@H]1[C@@H]3COC[C@@H]31)C(=O)N1CCC[C@H](N1)C(=O)OCC(C)(C)C2 (atropisomer, axis not shown; (M)) = 0.0205
CO[C@@H](C)c1ncc(N2CCN(C)CC2)cc1-c1c2c3cc(cc4c3n1CCC4)-c1csc(n1)C[C@H](NC(=O)[C@H]1C[C@@H]1c1cccnc1)C(=O)N1CCC[C@H](N1)C(=O)OCC(C)(C)C2 (atropisomer, axis not shown; (M)) = 0.0103
CO[C@@H](C)c1ncc(N2CCOCC2)cc1-c1c2c3cc(cc4c3n1CCO4)-c1csc(n1)C[C@H](NC(=O)[C@H]1[C@@H]3COC[C@@H]31)C(=O)N1CCC[C@H](N1)C(=O)OCC(C)(C)C2 (atropisomer, axis not shown; (M)) = 0.0059

API: value(readout=IC50, system=KRAS G12C-BRAF complex (Homo sapiens (Human), UniProt P01116+P62937, G12C)) for record CO[C@@H](C)c1ncc(N2CCN(C)CC2)cc1-c1c2c3cc(cc4c3n1CCO4)-c1csc(n1)C[C@H](NC(=O)[C@@H]1[C@@H]3COC[C@@H]31)C(=O)N1CCC[C@H](N1)C(=O)OCC(C)(C)C2 (atropisomer, axis not shown; (M)) 0.0161

* * *

Entries and their measured pIC50 follow.
- Test system: AGS cells (KRAS G12D)
- MEASUREMENT_DESCRIPTION: Cell viability assay (Cell Counting Kit-8, 3-day)
- Format: cell-based, human
- TEST_CONDITIONS: Homo sapiens, 72 h, 72 hrs incubation
Value format note: pIC50 is -log10 of concentration (mol/L); just state the number.

Solved cases (5 shown):
CO[C@@H](C)c1ncc(N2CCN(C)CC2)cc1-c1c2c3cc(cc4c3n1CCO4)-c1csc(n1)C[C@H](NC(=O)[C@@H]1C[C@H]1C1CC1)C(=O)N1CCC[C@H](N1)C(=O)OCC(C)(C)C2 (atropisomer, axis not shown; (M)) = 7.66
CO[C@@H](C)c1ncc(N2CCN(C)CC2)cc1-c1c2c3cc(cc4c3n1CC(F)(F)C4)-c1csc(n1)C[C@H](NC(=O)[C@H]1C[C@@H]1c1cccnc1)C(=O)N1CCC[C@H](N1)C(=O)OCC(C)(C)C2 (atropisomer, axis not shown; (M)) = 8.06
CO[C@@H](C)c1ncc(N2CCN(CC(F)(F)F)CC2)cc1-c1c2c3cc(cc4c3n1CCO4)-c1csc(n1)C[C@H](NC(=O)[C@H]1C[C@@H]1C(F)F)C(=O)N1CCC[C@H](N1)C(=O)OCC(C)(C)C2 (atropisomer, axis not shown; (M)) = 7.42
CO[C@@H](C)c1ncc(N2CCOCC2)cc1-c1c2c3cc(cc4c3n1CCC4)-c1csc(n1)C[C@H](NC(=O)[C@H]1C[C@@H]1c1ccccc1)C(=O)N1CCC[C@H](N1)C(=O)OCC(C)(C)C2 (atropisomer, axis not shown; (M)) = 7.49
CO[C@@H](C)c1ncc(N2CCN(C)CC2)cc1-c1c2c3cc(cc4c3n1CCC4)-c1csc(n1)C[C@H](NC(=O)[C@H]1C[C@@H]1C(F)F)C(=O)N1CCC[C@H](N1)C(=O)OCC(C)(C)C2 (atropisomer, axis not shown; (M)) = 7.76

Need pIC50 of CO[C@@H](C)c1ncc(N2CCN3CCOC[C@@H]3C2)cc1-c1c2c3cc(cc4c3n1CCC4)-c1csc(n1)C[C@H](NC(=O)[C@H]1[C@@H]3COC[C@@H]31)C(=O)N1CCC[C@H](N1)C(=O)OCC(C)(C)C2 (atropisomer, axis not shown; (M)) , thanks. 7.93

Request: CO[C@@H](C)c1ncc(N2CCN(C)CC2)cc1-c1c2c3cc(cc4c3n1CCO4)-c1csc(n1)C[C@H](NC(=O)[C@H]1C[C@@H]1c1ccccc1)C(=O)N1CCC[C@H](N1)C(=O)OCC(C)(C)C2 (atropisomer, axis not shown; (M)) 7.88

* * *

- Tested on: AGS cells (KRAS G12D)
- MEASUREMENT_DESCRIPTION: Cell viability assay (Cell Counting Kit-8, 3-day)
- Type: cell-based, human
- TEST_CONDITIONS: Homo sapiens, 72 h, 72 hrs incubation
hey, just use label 1 if measured IC50 is less than 10 nM, otherwise label 0

Check out these entries, answers already filled in.
CO[C@@H](C)c1ncc(N2CCOCC2)cc1-c1c2c3cc(cc4c3n1CC(F)(F)C4)-c1csc(n1)C[C@H](NC(=O)[C@H]1C[C@@H]1c1cccnc1)C(=O)N1CCC[C@H](N1)C(=O)OCC(C)(C)C2 (atropisomer, axis not shown; (M)) = label 1
CO[C@@H](C)c1ncc(N2CCN(C)CC2)cc1-c1c2c3cc(cc4c3n1CCC4)-c1csc(n1)C[C@H](NC(=O)[C@H]1C[C@@H]1c1ccccc1)C(=O)N1CCC[C@H](N1)C(=O)OCC(C)(C)C2 (atropisomer, axis not shown; (M)) = label 0
CO[C@@H](C)c1ncc(N2CCN(C)CC2)cc1-c1c2c3cc(cc4c3n1CCC4)-c1csc(n1)C[C@H](NC(=O)[C@@H]1C[C@H]1C1CC1)C(=O)N1CCC[C@H](N1)C(=O)OCC(C)(C)C2 (atropisomer, axis not shown; (M)) = label 0
CO[C@@H](C)c1ncc(N2CCOCC2)cc1-c1c2c3cc(cc4c3n1CC(F)(F)C4)-c1csc(n1)C[C@H](NC(=O)[C@H]1[C@H](C)[C@@H]1C)C(=O)N1CCC[C@H](N1)C(=O)OCC(C)(C)C2 (atropisomer, axis not shown; (M)) = label 1
CO[C@@H](C)c1ncc(N2CCN(C)CC2)cc1-c1c2c3cc(cc4c3n1CCO4)-c1csc(n1)C[C@H](NC(=O)[C@@H]1[C@@H]3COC[C@@H]31)C(=O)N1CCC[C@H](N1)C(=O)OCC(C)(C)C2 (atropisomer, axis not shown; (M)) = label 0
CO[C@@H](C)c1ncc(N2CCN(CCC(C)(C)OC)CC2)cc1-c1c2c3cc(cc4c3n1CCC4)-c1csc(n1)C[C@H](NC(=O)[C@H]1[C@H](C)[C@@H]1C)C(=O)N1CCC[C@H](N1)C(=O)OCC(C)(C)C2 (atropisomer, axis not shown; (M)) = label 1

Does the reported IC50 of CO[C@@H](C)c1ncc(N2CCOCC2)cc1-c1c2c3cc(cc4c3n1CCC4)-c1csc(n1)C[C@H](NC(=O)[C@H]1C[C@@H]1c1cccnc1)C(=O)N1CCC[C@H](N1)C(=O)OCC(C)(C)C2 (atropisomer, axis not shown; (M)) stay below 10 nM? label 1

* * *

Reported pIC50 values for a set of compounds
- System: SW620 cells (KRAS G12V)
- MEASUREMENT_DESCRIPTION: Cell viability assay (Cell Counting Kit-8, 3-day)
- Type: cell-based, human
- TEST_CONDITIONS: Homo sapiens, SW-620; SW620, 72 hrs incubation
Quick note: pIC50 values are minus log10 of concentrations in mol/L.

Given CO[C@@H](C)c1ncc(N2CCN(CC(F)F)CC2)cc1-c1c2c3cc(cc4c3n1CCC4)-c1csc(n1)C[C@H](NC(=O)[C@H]1[C@H](C)[C@@H]1C)C(=O)N1CCC[C@H](N1)C(=O)OCC(C)(C)C2 (atropisomer, axis not shown) , state its recorded pIC50. 9.22

Please answer likewise for CO[C@@H](C)c1ncc(N2CCN3CCOC[C@@H]3C2)cc1-c1c2c3cc(cc4c3n1CCC4)-c1csc(n1)C[C@H](NC(=O)[C@H]1C[C@@H]1c1cncnc1)C(=O)N1CCC[C@H](N1)C(=O)OCC(C)(C)C2 (atropisomer, axis not shown; (M)) 9.22

Check CO[C@@H](C)c1ncc(N2CCN(C)CC2)cc1-c1c2c3cc(cc4c3n1CCO4)-c1csc(n1)C[C@H](NC(=O)[C@H]1[C@@H]3COC[C@@H]31)C(=O)N1CCC[C@H](N1)C(=O)OCC(C)(C)C2 (atropisomer, axis not shown; (M)) too. 9.00
